# Tested on: NCI-H661
# ASSAY SUMMARY: relative viability (nuclei count vs DMSO), 5 days (fraction); higher = more cells survive
# RUN CONDITIONS: first compound 0.1265 µM
READOUT NAME: relative viability
Reply briefly: the number, and no unit.

COc1cc(N2CCC(C(N)=O)CC2)ccc1Nc1nc(N)c(Cl)c(Nc2ccccc2S(=O)(=O)C(C)C)n1 [HG-5-88-01] + N=C(N)NC(=N)NCCc1ccccc1 [Phenformin] (partner 250 µM); 0.277
C[C@@H]1CN(CC(=O)Nc2ccc3c(c2)Cc2cccc(-c4cc(=O)cc(N5CCOCC5)o4)c2S3)C[C@H](C)O1 + CC(=O)c1c(C)c2cnc(Nc3ccc(N4CCNCC4)cn3)nc2n(C2CCCC2)c1=O [Palbociclib] (partner 0.5 µM); 0.442
C[C@@H]1CN(CC(=O)Nc2ccc3c(c2)Cc2cccc(-c4cc(=O)cc(N5CCOCC5)o4)c2S3)C[C@H](C)O1 + Cc1nc(NC(=O)N2CCC[C@H]2C(N)=O)sc1-c1ccnc(C(C)(C)C(F)(F)F)c1 [Alpelisib] (partner 2 µM); 0.741
Clc1ccc(Nc2nnc(Cc3ccncc3)c3ccccc23)cc1 [Vatalanib] + CCNC(=O)c1noc(-c2cc(C(C)C)c(O)cc2O)c1-c1ccc(CN2CCOCC2)cc1 [Luminespib] (partner 0.01 µM); 0.91
COc1cc(N2CCC(C(N)=O)CC2)ccc1Nc1nc(N)c(Cl)c(Nc2ccccc2S(=O)(=O)C(C)C)n1 [HG-5-88-01] + Cc1nc(Nc2ncc(C(=O)Nc3c(C)cccc3Cl)s2)cc(N2CCN(CCO)CC2)n1 [Dasatinib] (partner 0.075 µM); 0.941

Fill in the blank: the reported relative viability of C[C@@H]1CN(CC(=O)Nc2ccc3c(c2)Cc2cccc(-c4cc(=O)cc(N5CCOCC5)o4)c2S3)C[C@H](C)O1 + C[C@]1(O)C[C@@H](c2nc(-c3ccc4ccc(-c5ccccc5)nc4c3)c3c(N)nccn32)C1 [Linsitinib] (partner 1 µM) is ____.
0.556

Can you check COc1cc(N2CCC(C(N)=O)CC2)ccc1Nc1nc(N)c(Cl)c(Nc2ccccc2S(=O)(=O)C(C)C)n1 [HG-5-88-01] + C[C@]1(O)C[C@@H](c2nc(-c3ccc4ccc(-c5ccccc5)nc4c3)c3c(N)nccn32)C1 [Linsitinib] (partner 1 µM) next?
0.624

Can you check COc1cc(N2CCC(C(N)=O)CC2)ccc1Nc1nc(N)c(Cl)c(Nc2ccccc2S(=O)(=O)C(C)C)n1 [HG-5-88-01] + CC(C)C[C@H](NC(=O)[C@H](Cc1ccccc1)NC(=O)c1cnccn1)B(O)O [Bortezomib] (partner 0.002 µM) next?
0.878

====

# System: NCI-H1648
# ASSAY SUMMARY: relative viability (nuclei count vs DMSO), 5 days (fraction); higher = more cells survive
# RUN CONDITIONS: first compound 1.265 µM
READOUT NAME: relative viability

Fill in the blank: the reported relative viability of COc1cc(N2CCC(C(N)=O)CC2)ccc1Nc1nc(N)c(Cl)c(Nc2ccccc2S(=O)(=O)C(C)C)n1 [HG-5-88-01] + O=C(c1cc(Cc2n[nH]c(=O)c3ccccc23)ccc1F)N1CCN(C(=O)C2CC2)CC1 [Olaparib] (partner 8 µM) is ____.
0.773

Can you check COc1cc(N2CCC(C(N)=O)CC2)ccc1Nc1nc(N)c(Cl)c(Nc2ccccc2S(=O)(=O)C(C)C)n1 [HG-5-88-01] + Nc1nc2[nH]cc(CCc3ccc(C(=O)N[C@@H](CCC(=O)O)C(=O)O)cc3)c2c(=O)[nH]1 [Pemetrexed] (partner 0.2 µM) next?
0.596

Can you check Clc1ccc(Nc2nnc(Cc3ccncc3)c3ccccc23)cc1 [Vatalanib] + Nc1nc2[nH]cc(CCc3ccc(C(=O)N[C@@H](CCC(=O)O)C(=O)O)cc3)c2c(=O)[nH]1 [Pemetrexed] (partner 0.2 µM) next?
0.741

Can you check Clc1ccc(Nc2nnc(Cc3ccncc3)c3ccccc23)cc1 [Vatalanib] + Cc1cc(Nc2cc(N3CCN(C)CC3)nc(Sc3ccc(NC(=O)C4CC4)cc3)n2)n[nH]1 [Tozasertib] (partner 0.1 µM) next?
0.523

Can you check Clc1ccc(Nc2nnc(Cc3ccncc3)c3ccccc23)cc1 [Vatalanib] + CC(=O)c1c(C)c2cnc(Nc3ccc(N4CCNCC4)cn3)nc2n(C2CCCC2)c1=O [Palbociclib] (partner 0.5 µM) next?
0.233

Can you check Clc1ccc(Nc2nnc(Cc3ccncc3)c3ccccc23)cc1 [Vatalanib] + O=C(CCCCCCC(=O)Nc1ccccc1)NO [Vorinostat] (partner 1 µM) next?
0.42

====

# Test system: HCC-827
# ASSAY SUMMARY: relative viability (nuclei count vs DMSO), 5 days (fraction); higher = more cells survive
# RUN CONDITIONS: first compound 2.53 µM
Parameter relative viability: see the listing below.

Here is how some molecules turned out for relative viability.
CCCCCCCCCCCC1=C(O)C(=O)C=C(O)C1=O [Embelin] + CC(C)C[C@H](NC(=O)[C@H](Cc1ccccc1)NC(=O)c1cnccn1)B(O)O [Bortezomib] (partner 0.002 µM); 1.06
CCCCCCCCCCCC1=C(O)C(=O)C=C(O)C1=O [Embelin] + Nc1nc2[nH]cc(CCc3ccc(C(=O)N[C@@H](CCC(=O)O)C(=O)O)cc3)c2c(=O)[nH]1 [Pemetrexed] (partner 0.2 µM); 0.285

Fill in the blank: the reported relative viability of CCCCCCCCCCCC1=C(O)C(=O)C=C(O)C1=O [Embelin] + O=C(c1cc(Cc2n[nH]c(=O)c3ccccc23)ccc1F)N1CCN(C(=O)C2CC2)CC1 [Olaparib] (partner 8 µM) is ____.
0.701

Can you check CCCCCCCCCCCC1=C(O)C(=O)C=C(O)C1=O [Embelin] + CC(=O)Nc1cccc(-n2c(=O)n(C3CC3)c(=O)c3c(Nc4ccc(I)cc4F)n(C)c(=O)c(C)c32)c1 [Trametinib] (partner 0.02 µM) next?
0.506

Can you check CCCCCCCCCCCC1=C(O)C(=O)C=C(O)C1=O [Embelin] + Nc1ncn([C@H]2C[C@H](O)[C@@H](CO)O2)c(=O)n1 [Decitabine] (partner 2 µM) next?
0.38

====

Parameter relative viability: see the listing below.
# System: HCC-15
# ASSAY SUMMARY: relative viability (nuclei count vs DMSO), 5 days (fraction); higher = more cells survive
# RUN CONDITIONS: first compound 0.04 µM
Reply briefly: the number, and no unit.

Clc1ccc(Nc2nnc(Cc3ccncc3)c3ccccc23)cc1 [Vatalanib] + Cc1cc(Nc2cc(N3CCN(C)CC3)nc(Sc3ccc(NC(=O)C4CC4)cc3)n2)n[nH]1 [Tozasertib] (partner 0.1 µM); 0.419
COc1cc(N2CCC(C(N)=O)CC2)ccc1Nc1nc(N)c(Cl)c(Nc2ccccc2S(=O)(=O)C(C)C)n1 [HG-5-88-01] + Cc1nc(NC(=O)N2CCC[C@H]2C(N)=O)sc1-c1ccnc(C(C)(C)C(F)(F)F)c1 [Alpelisib] (partner 2 µM); 0.925
C[C@@H]1CN(CC(=O)Nc2ccc3c(c2)Cc2cccc(-c4cc(=O)cc(N5CCOCC5)o4)c2S3)C[C@H](C)O1 + CCNC(=O)c1noc(-c2cc(C(C)C)c(O)cc2O)c1-c1ccc(CN2CCOCC2)cc1 [Luminespib] (partner 0.01 µM); 0.358
COc1cc(N2CCC(C(N)=O)CC2)ccc1Nc1nc(N)c(Cl)c(Nc2ccccc2S(=O)(=O)C(C)C)n1 [HG-5-88-01] + CC(=O)Nc1cccc(-n2c(=O)n(C3CC3)c(=O)c3c(Nc4ccc(I)cc4F)n(C)c(=O)c(C)c32)c1 [Trametinib] (partner 0.02 µM); 0.372
COc1cc(N2CCC(C(N)=O)CC2)ccc1Nc1nc(N)c(Cl)c(Nc2ccccc2S(=O)(=O)C(C)C)n1 [HG-5-88-01] + O=C(c1cc(Cc2n[nH]c(=O)c3ccccc23)ccc1F)N1CCN(C(=O)C2CC2)CC1 [Olaparib] (partner 8 µM); 0.738

Then this compound:
// fetch HCC-15 relative viability for COc1cc(N2CCC(C(N)=O)CC2)ccc1Nc1nc(N)c(Cl)c(Nc2ccccc2S(=O)(=O)C(C)C)n1 [HG-5-88-01] + O=C(CCCCCCC(=O)Nc1ccccc1)NO [Vorinostat] (partner 1 µM)
0.822

====

# Test system: NCI-H727
# ASSAY SUMMARY: relative viability (nuclei count vs DMSO), 5 days (fraction); higher = more cells survive
# RUN CONDITIONS: first compound 0.1265 µM
READOUT NAME: relative viability
Reply briefly: the number, and no unit.

Clc1ccc(Nc2nnc(Cc3ccncc3)c3ccccc23)cc1 [Vatalanib] + CS(=O)(=O)CCNCc1ccc(-c2ccc3ncnc(Nc4ccc(OCc5cccc(F)c5)c(Cl)c4)c3c2)o1 [Lapatinib] (partner 2 µM); 0.717
Clc1ccc(Nc2nnc(Cc3ccncc3)c3ccccc23)cc1 [Vatalanib] + N=C(N)NC(=N)NCCc1ccccc1 [Phenformin] (partner 250 µM); 0.572
COc1cc(N2CCC(C(N)=O)CC2)ccc1Nc1nc(N)c(Cl)c(Nc2ccccc2S(=O)(=O)C(C)C)n1 [HG-5-88-01] + CS(=O)(=O)N1CCN(Cc2cc3nc(-c4cccc5[nH]ncc45)nc(N4CCOCC4)c3s2)CC1 [Pictilisib] (partner 1 µM); 0.448

Fill in the blank: the reported relative viability of COc1cc(N2CCC(C(N)=O)CC2)ccc1Nc1nc(N)c(Cl)c(Nc2ccccc2S(=O)(=O)C(C)C)n1 [HG-5-88-01] + CS(=O)(=O)CCNCc1ccc(-c2ccc3ncnc(Nc4ccc(OCc5cccc(F)c5)c(Cl)c4)c3c2)o1 [Lapatinib] (partner 2 µM) is ____.
0.93

Can you check C[C@@H]1CN(CC(=O)Nc2ccc3c(c2)Cc2cccc(-c4cc(=O)cc(N5CCOCC5)o4)c2S3)C[C@H](C)O1 + CC(C)C[C@H](NC(=O)[C@H](Cc1ccccc1)NC(=O)c1cnccn1)B(O)O [Bortezomib] (partner 0.002 µM) next?
0.824

Can you check Clc1ccc(Nc2nnc(Cc3ccncc3)c3ccccc23)cc1 [Vatalanib] + Nc1ncn([C@H]2C[C@H](O)[C@@H](CO)O2)c(=O)n1 [Decitabine] (partner 2 µM) next?
0.801

Can you check COc1cc(N2CCC(C(N)=O)CC2)ccc1Nc1nc(N)c(Cl)c(Nc2ccccc2S(=O)(=O)C(C)C)n1 [HG-5-88-01] + Nc1ncn([C@H]2C[C@H](O)[C@@H](CO)O2)c(=O)n1 [Decitabine] (partner 2 µM) next?
0.789

Can you check C[C@@H]1CN(CC(=O)Nc2ccc3c(c2)Cc2cccc(-c4cc(=O)cc(N5CCOCC5)o4)c2S3)C[C@H](C)O1 + O=C(CCCCCCC(=O)Nc1ccccc1)NO [Vorinostat] (partner 1 µM) next?
1.17

Can you check Clc1ccc(Nc2nnc(Cc3ccncc3)c3ccccc23)cc1 [Vatalanib] + CS(=O)(=O)N1CCN(Cc2cc3nc(-c4cccc5[nH]ncc45)nc(N4CCOCC4)c3s2)CC1 [Pictilisib] (partner 1 µM) next?
0.355
